Assay: Mouse plasma PK (IV and PO dosing)
Type: in vivo, Male C57 Bl/6J mice
Conditions: male, C57 Bl/6J, mouse, plasma, iv, 1 mg/kg, IV 1 mg/kg, mouse plasma, average; read-out: Tmax
reported_property: Tmax (min)
The reply should contain only the number, in min.

Consider the compound "Nc1ccc(-c2cccs2)cc1NC(=O)c1ccc2c(c1)CCC(=O)N2" and give its measured Tmax.
8.4

###

Assay: Mouse plasma PK (IV and PO dosing)
Format: in vivo, Male C57 Bl/6J mice
Details: male, C57 Bl/6J, plasma; PO 7 mg/kg vs IV 1 mg/kg, mouse; read-out: % F (bioavailability)
reported_property: bioavailability (%)
Write the value in % as a bare number.

Any idea what its bioavailability is? The molecule is "Nc1ccc(-c2cccs2)cc1NC(=O)c1ccc2c(c1)CCC(=O)N2"
20

###

Test: Mouse plasma PK (IV and PO dosing)
Format: in vivo, Male C57 Bl/6J mice
Details: male, C57 Bl/6J, mouse, plasma, iv, 1 mg/kg, IV 1 mg/kg, mouse plasma, average; read-out: AUCINF—obs (converted)
reported_property: AUC(0-inf) (ng·h/mL)
Expressed in ng·h/mL, but write only the number.

# lookup: AUC(0-inf) of "Nc1ccc(-c2cccs2)cc1NC(=O)c1ccc2c(c1)CCC(=O)N2"
3140

Origin of the recorded values: patent US20190270733A1
